Overview of reported Kd across a group of binders:
target: T1, RSV F subtype B, furin-cleaved ectodomain stabilized in the postfusion conformation (F ΔFP) (Respiratory syncytial virus subtype B); experiment: BLI, IgG on AHQ sensor, 100 nM antigen
T1 construct: extracellular domain; Trimeric soluble antigen; also called Postfusion subtype B

# binder, Kd
measured = [
    ("ADI-18970 (antibody, V domains shown, full-length IgG from yeast; also called Antibody Number 318; Ab # 318) VH: QVQLQESGPRLVKPSQTLSLTCTVSGGSISSGDYYWSWIRQPPGKGLEWIGYIYYSGSTHYNPSLKSRVSMSVDTAKNQFSLKLTSVTAADTAVYYCARDIGYGDHGTGSYYYGIEDWGQGTTVTVSS VL: DIVMTQTPATLSLSPGDRATLSCRASQNIMSYLAWYQHKPGQPPRLLIYDASYRAAGIPARFSGSGSGTDFTLTISSLEPEDFAVYYCQQRTNWITFGQGTRLEIK", "0.412 nM"),
    ("ADI-18938 (antibody, V domains shown, full-length IgG from yeast; also called Antibody Number 291; Ab # 291) VH: EVQLLESGGGLVQPGGSLRLSCAASGFTFSNYWMHWVRQAPGKGLVWVSRISGDGSDTTYADSVEGRFTISRDNARSTLYLQLNSLTGDDTAVYYCARDLWTTSPYFDLWGQGTLVTVSS VL: EIVLTQSPGTLSASIGDRVTITCRASQSLNGWLAWYQQKPGKAPRLLIYKSSSLESGVPSRFSGSASGTEFTLTISSLQPDDFATYYCQQYNSWAFGQGTKVDVK", "0.168 nM"),
    ("ADI-18911 (antibody, V domains shown, full-length IgG from yeast) VH: QVQLVESGAEARKPGESLKISCKASGYSFTNYWIGWVRQMPGKGLEWMGVIYPADSDTRYSPSFKGQVTISADKSISTAYLQWTRLKASDTAVYFCARLGIGAAARNYWGQGTLVTVSS VL: DIQVTQSPSSLSASVGDRVTITCQASQDISDSLNWYQQKPGKAPNLLIYDASKSETGVPSRFSGSGSGTDFTFTISSLQPEDLATYYCLQFDNLPPTFGQGTRLEIK", "0.28 nM"),
    ("ADI-18878 (antibody, V domains shown, full-length IgG from yeast; also called Antibody Number 235; Ab # 235) VH: QVQLQESGPRLVKPSQTLSLICDVSGGSIGSGDHYWSWIRQPPGKGLEWIGYIYYSGTTYYNPSLKSRVTISADTSKNQLSLKLSSVTAADTAIYFCARDGGYDHVWGTHRYFDKWGQGTLVTVSS VL: EIVLTQSPGTLSLSPGERATLSCRASQSVSNSYLAWYQQKPGQAPRLLIYGVSTRATGIPDRFSGSGSGTDFTLTISRLEPEDFAMYHCQQYGASPWTFGQGTKVDIK", "0.388 nM"),
    ("ADI-18888 (antibody, V domains shown, full-length IgG from yeast; also called Antibody Number 243; Ab # 243) VH: QVQLVESGGGVVQPGRSLRLSCVASGFSFSMHGMHWVRQAPGKGLEWVTAIWYDGSNKYYADSVKGRFTISRDNSRNTLYLQMNSLRAEDTAVYYCARDHASTPYYMDVWGKGTTVTVSS VL: ETTLTQSPGTLSLSPGESATLSCRTSQRISSTYLAWYRQKPGQAPRLLMYGASSRATGIPDRFSGSGSGTDFTLTISSLEPEDFALYYCQQYGSFPWTFGQGTKLEIK", "1.16 nM"),
    ("ADI-18951 (antibody, V domains shown, full-length IgG from yeast) VH: QVQLVQSGGGLVQPGGSLRLSCAASGFAFSDYTMSWVRQAPGKGLEWVSSVSGTGGTSYYADSVNGRFAISRENSKNTLFLQMDSLRAEDTATYYCAKDGLRDVSRVYYIDVWGKGTTVTVSS VL: QPVLTQPASVSGSPGQSITISCTGTSRDIGSHDSVSWYQQKPGKAPKLIIYAVRNRPSGLSNRFSGSKSGNTASLTISGLQTEDEGDYYCSSYRNGNALGVFGTGTKVTVL", "1.13 nM"),
    ("ADI-18906 (antibody, V domains shown, full-length IgG from yeast) VH: EVQLVESGGGVVQPGRSLRLSCVASGFSFSMHGMHWVRQAPGKGLEWVTAIWYDGSNKYYADSVKGRFTISRDNSRNTLYLQMNSLRAEDTAVYYCARDHASTPYYMDVWGKGTTVTVSS VL: ETTLTQSPGTLSLSPGESATLSCRTSQRISSTYLAWYRQKPGQAPRLLMYGASSRATGIPDRFSGSGSGTDFTLTISSLEPEDFALYYCQQYGSFPWTFGQGTKVEIK", "1.1 nM"),
    ("ADI-18968 (antibody, V domains shown, full-length IgG from yeast) VH: EVQLVESGPGLVKPSQTLSLTCTVSDVLISSGDYYWSWIRQSPGKGLEWLGYIYYTGKTKYNPSLESRITMSVDTSKNQFSLRLSSVTAADTAVYFCTRDLGYSTSSPSFYYGMDVWGQGTTVTVSS VL: EIVLTQSPATLSLSPGERATLSCRASQSVGTYLAWYQQKPGQAPRLLIYDASYRVTGIPARFSASGSATDFTLTISSLEPEDFAVYFCQQRTNWPITFGQGTRLEIK", "0.305 nM"),
    ("ADI-18948 (antibody, V domains shown, full-length IgG from yeast; also called Antibody Number 300; Ab # 300) VH: EVQLLESGGGVVQSGRSLRLSCVASGFTFSDSGMHWVRQAPGKGLEWVAGLFYDGSNKQYADSVKGRFTISRDNSKSTLYLQMNSLRAEDTAVYYCARAPYDIWSGYCLDYWGQGTLVTVSS VL: EIVLTQSPATLYMSPGERATLSCRASQSVNNNLAWYQQRPGQAPRLLIYGASTRATGIPARFSGSGSETEFTLTISSLQSEDFAVYHCQQYSIWPQTFGQGTKLEIK", "0.247 nM"),
    ("ADI-18899 (antibody, V domains shown, full-length IgG from yeast) VH: EVQLVESGGGVVQSGRSLRLSCAASGFTFSDNGMHWVRQAPGKGLEWVAGIFYDGSNKQYADSVKGRFTISRDNSKSTLYLQMNSLRAEDTAVYYCARAPYDIWSGYCLDYWGQGTLVTVSS VL: DIRLTQSPATLSMSPGERATLSCRASQSVNNNLAWYQQRPGQAPRLLIYGASTRATGIPARFSGSGSETEFTLTISSLQSEDFAVYHCQQYSIWPQTFGQGTKVDIK", "0.251 nM"),
]
